Molecular target: T1, Mcl-1, Q07820
T1 chain: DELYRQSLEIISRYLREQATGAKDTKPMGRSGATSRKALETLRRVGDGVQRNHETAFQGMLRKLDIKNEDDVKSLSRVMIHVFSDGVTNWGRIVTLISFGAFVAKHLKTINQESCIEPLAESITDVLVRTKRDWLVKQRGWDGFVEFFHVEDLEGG
Experiment: peptide SPOT array, c-Myc-tagged receptor at 1 uM or 100 nM, anti-c-Myc-Cy3
metric: SPOT signal as a fraction of Bim BH3's signal on the same receptor and array
# output: bare number, no unit

# return recorded SPOT signal as a fraction of Bim BH3's signal on the same receptor and array for entry QDKILVAVKTLKDASDNARKDFHREA [NTRK2] 0.02

# return recorded SPOT signal as a fraction of Bim BH3's signal on the same receptor and array for entry HPRRESQVRQLAWIGDGVWVSIRLDS [MAPK8IP3] 0.02

# return recorded SPOT signal as a fraction of Bim BH3's signal on the same receptor and array for entry MQTLSELAKSFQDMADRCLLVLHLEV [EXOC4] 0.04

# return recorded SPOT signal as a fraction of Bim BH3's signal on the same receptor and array for entry RDSFKHLIGGLDDVSNKAYEDAEAKA [PRKG1] 0.01

# return recorded SPOT signal as a fraction of Bim BH3's signal on the same receptor and array for entry FGEYSGISENIILVGDDFWIPETSFI [ROS1] 0.04

# return recorded SPOT signal as a fraction of Bim BH3's signal on the same receptor and array for entry SDIRDDISEQVRHVLRTVRGHPRKKL [TMEM184C] 0.31

# return recorded SPOT signal as a fraction of Bim BH3's signal on the same receptor and array for entry SSLSDGLPVHLANIADELTQKKKMFK [AGBL2] 0.11
